Taken from the PETadex activity labels (doi:10.1002/cssc.202101062).

Substrate: gfPET
Experiment: Proxy for plastic degradation [Released monomer concentration (HPLC/LC-MS) (TPA+MHET+BHET)]
Conditions: 50 °C
assayReadout: Proxy for plastic degradation (mmol/h)
Provide the reading as a plain figure in mmol/h.

Sample records with Proxy for plastic degradation:
protein="unnamed (protein) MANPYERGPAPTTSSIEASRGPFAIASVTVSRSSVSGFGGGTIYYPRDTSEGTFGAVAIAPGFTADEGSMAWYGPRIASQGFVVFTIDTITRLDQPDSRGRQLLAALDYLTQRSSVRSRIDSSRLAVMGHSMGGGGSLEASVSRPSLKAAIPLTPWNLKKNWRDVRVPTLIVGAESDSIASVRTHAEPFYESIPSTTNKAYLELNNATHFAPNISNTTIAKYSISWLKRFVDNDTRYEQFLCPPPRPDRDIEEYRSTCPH" measvalue=0.38
protein="unnamed (protein) MENPYERGPDPTESSIEAVRGPFAVAQTTVSRLQADGFGGGTIYYPTDTSQGTFGAVAISPGFTAGQESIAWLGPRIASQGFVVITIDTITRLDQPDSRGRQLQAALDHLRTNSVVRNRIDPNRMAVMGHSMGGGGALSAAANNTSLEAAIPLQGWHTRKNWSSVRTPTLVVGAQLDTIAPVSSHSEAFYNSLPSDLDKAYMELRGASHFVSNTPDTTTAKYSIAWLKRFVDNDLRYEQFLCPAPDDFAISEYRATCPF" measvalue=0.08
protein="unnamed (protein) MANPYERGPNPTDALLEARSGPFSVSEENVSRLSASGFGGGTIYYPRENNTYGAVAISPGYTGTEASIAWLGERIASHGFVVITIDTITTLDQPDSRAEQLNAALNHMINRASSTVRSRIDSSRLAVMGHSMGGGGSLRLASQRPDLKAAIPLTPWHLNKNWSSVTVPTLIIGADLDTIAPVATHAKPFYNSLPSSISKAYLELDGATHFAPNIPNKIIGKYSVAWLKRFVDNDTRYTQFLCPGPRDGLFGEVEEYRSTCPF" measvalue=0.05

Then this protein:
Record summary for unnamed (protein) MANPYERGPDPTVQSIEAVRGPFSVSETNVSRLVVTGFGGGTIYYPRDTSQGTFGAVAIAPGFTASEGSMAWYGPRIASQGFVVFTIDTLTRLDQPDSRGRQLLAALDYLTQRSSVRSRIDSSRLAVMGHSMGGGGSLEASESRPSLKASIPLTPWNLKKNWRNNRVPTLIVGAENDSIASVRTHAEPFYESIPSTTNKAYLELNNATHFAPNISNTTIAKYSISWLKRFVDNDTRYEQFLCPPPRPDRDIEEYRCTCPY : reported Proxy for plastic degradation = 0.2
